pIC50: −log10 of the molar value.
Reported pIC50, ABL1 (Homo sapiens).

Reference set (2 entries):
CCOC(=O)Nc1nc2cc(-c3n[nH]c(=O)c4ccccc34)cc(Cl)c2[nH]1: > 6.30
CCOC(=O)Nc1nc2cc(-c3n[nH]c(=O)c4cc(F)c(F)cc34)ccc2[nH]1: > 6.30

Give measured pIC50 for every item shown.
1. CCOC(=O)Nc1nc2cc(-c3n[nH]c(=O)c4ccc(F)cc34)ccc2[nH]1
2. COCCOC(=O)Nc1nc2cc(-c3n[nH]c(=O)c4ccccc34)ccc2[nH]1

Reply text:
> 6.30
6.00 to 6.30

* * *

Target: PARP1 (Homo sapiens)
Sequence (P09874 whole entry): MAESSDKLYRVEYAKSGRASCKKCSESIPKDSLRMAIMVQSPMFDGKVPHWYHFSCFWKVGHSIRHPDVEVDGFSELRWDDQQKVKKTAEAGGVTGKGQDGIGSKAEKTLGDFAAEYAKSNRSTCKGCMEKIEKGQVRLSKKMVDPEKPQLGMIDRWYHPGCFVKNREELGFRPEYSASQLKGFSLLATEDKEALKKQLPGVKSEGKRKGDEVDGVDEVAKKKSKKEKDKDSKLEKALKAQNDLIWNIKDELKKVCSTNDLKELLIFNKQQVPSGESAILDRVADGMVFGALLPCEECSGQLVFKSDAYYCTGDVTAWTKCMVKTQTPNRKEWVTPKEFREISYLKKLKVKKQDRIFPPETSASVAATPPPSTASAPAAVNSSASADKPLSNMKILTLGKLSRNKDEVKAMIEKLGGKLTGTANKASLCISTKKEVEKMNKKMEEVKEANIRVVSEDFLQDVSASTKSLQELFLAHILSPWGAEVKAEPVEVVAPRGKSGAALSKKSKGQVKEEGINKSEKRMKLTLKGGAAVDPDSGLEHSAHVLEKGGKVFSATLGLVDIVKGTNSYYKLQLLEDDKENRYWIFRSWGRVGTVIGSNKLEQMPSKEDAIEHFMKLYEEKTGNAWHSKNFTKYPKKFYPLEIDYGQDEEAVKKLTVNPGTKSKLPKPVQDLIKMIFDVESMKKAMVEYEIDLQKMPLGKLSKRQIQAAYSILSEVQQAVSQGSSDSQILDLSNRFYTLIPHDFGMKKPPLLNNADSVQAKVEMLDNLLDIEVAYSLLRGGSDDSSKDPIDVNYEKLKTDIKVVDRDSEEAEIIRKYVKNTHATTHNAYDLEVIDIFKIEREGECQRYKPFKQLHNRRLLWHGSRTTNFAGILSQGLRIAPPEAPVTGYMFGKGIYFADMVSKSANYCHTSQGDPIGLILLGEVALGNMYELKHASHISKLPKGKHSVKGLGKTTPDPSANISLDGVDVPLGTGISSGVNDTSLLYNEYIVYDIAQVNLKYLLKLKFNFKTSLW
pIC50: −log10 of the molar value.
assayMetric: pIC50

CCCC(=O)Nc1nc2cc(-c3n[nH]c(=O)c4ccccc34)ccc2[nH]1: 5.00 to 5.30

Moving on to the next molecule.
Inquiry: Consider the molecule CCOC(=O)Nc1nc2cc(-c3n[nH]c(=O)c4cccc(Cl)c34)ccc2[nH]1 . State its measured pIC50.
Reply text: < 5.00

The values you see were collected from patent US11708352B2.
